These measurements were taken from PubChem BioAssay (NCI).

- PROTOCOL TEXT: NCI Yeast Anticancer Drug Screen. Data for the rad50 strain (AID 155);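 also: 0% = growth of vehicle-only cultures of the same strain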
- ASSAY CONTEXT: S. cerevisiae rad50 strain growth inhibition; at 50.0 µM; active compounds read high
About 79,000 compounds went through this panel and 15% of them were active in at least one assay; those are over-represented in the sample as a whole.
QUANTITY NAME: growth inhibition (%)
Expressed in %, but write only the number.

Ask | Need growth inhibition of `O=c1cc(C(F)(F)F)[nH]c(=S)[nH]1` , thanks.
Reply | -21.9

Ask | Which growth inhibition is reported for this compound? `Cc1c(Cl)cccc1N=C=S`
Reply | -9.85

Ask | Form field: reported growth inhibition of `NS(=O)(=O)c1cc(=O)[nH]c(=O)[nH]1`
Reply | -12.2

Ask | Please give the measured growth inhibition for this compound: `CCOC(=O)C(CCC#N)(CCC#N)C(=O)OCC`
Reply | 39.5

Ask | Would you kindly share the measured growth inhibition for `Clc1ccc(/C=C/c2ccccn2)cc1` ?
Reply | 21.1

Ask | // query growth inhibition value for entry `O=C(NCc1ccccc1)/C(=C/c1ccccc1)NC(=O)c1ccccc1`
Reply | -33.1

Ask | # input compound: `O=C(c1ccccc1O)N1CCCC1` ; wanted: its growth inhibition
Reply | 19.6

Ask | What value of measured growth inhibition is listed for `N#C/C(=C\c1ccc(C#N)cc1)C(=O)c1ccccc1` ?
Reply | 10.5

Ask | Entry `COc1cccc2c1Cc1ccccc1-2` has what growth inhibition?
Reply | 50.3

Ask | Which value of growth inhibition has been reported for `CCOC(=O)CSCCC#N` in the records?
Reply | 2.85

Ask | // query growth inhibition value for entry `NNC(=O)c1ccccc1N`
Reply | -1.8

Ask | Which value of growth inhibition has been reported for `Cc1cc(CO)c(O)c(CO)c1` in the records?
Reply | 8.15

Ask | growth inhibition lookup needed for `COCC(N)=O` , thanks.
Reply | 31.2

Ask | Would you mind telling me what growth inhibition value was observed for `C1CCc2onc(-c3noc4c3CCCCC4)c2CC1` ?
Reply | -9.45

###

- PROTOCOL TEXT: NCI Yeast Anticancer Drug Screen. Data for the rad50 strain (AID 155);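 also: 0% = growth of vehicle-only cultures of the same strain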
- ASSAY CONTEXT: S. cerevisiae rad50 strain growth inhibition; at 50.0 µM
This is part of a sample that, as a whole, favours compounds with a hit. Of some 79,000 tested, about 15% had one in any assay. Activity calls are given as the source filed them. No stated cut-off is given here; in the data, active means growth inhibition above about 70%; inactive means the rest.
Hi there, use one of these labels in your reply, thanks! t for active, f for inactive

Ask | # outcome recorded in this test, key = COc1ccc(C2CC(c3ccccc3)=Nc3ccccc3S2)cc1 (stereo not drawn)
Reply | f

Ask | Name the outcome recorded for `Nc1ccc(F)cc1F` in the assay.
Reply | f

Ask | Assay outcome for COc1ccc(C2CCCCC2=O)cc1 (stereo not drawn) : what was it?
Reply | f

Ask | Recorded test outcome, item `COc1ccc(NNS(=O)(=O)O)cc1`
Reply | f

Ask | Record lookup: outcome of this test for OCC(O)COc1ccc(Cl)cc1Cl (stereo not drawn) ?
Reply | f

Ask | Dear all, I need the recorded test outcome for `C[C@H](CCC[C@H](C)OS(=O)(=O)c1ccccc1)OS(=O)(=O)c1ccccc1` , thank you.
Reply | f

Ask | Call for entry `COc1ccc(/C=N/NC(=O)COCC(=O)N/N=C/c2ccc(OC)cc2)cc1` :
Reply | f

Ask | I'd appreciate the recorded outcome for NCC(O)C(O)C(O)C(O)CO (stereo not drawn) from this test.
Reply | f

Ask | What did the test return for `CC(=O)N=c1ccc2nc3c(cc(N)c4ccccc43)oc-2c1` ?
Reply | f

Ask | Fill in: this test's call for `COc1ccc(/C=C\C(=O)/C=C/c2ccc(OC)cc2)cc1` is ___
Reply | f

Ask | What did the test return for `OC1Cc2ccccc2C1` ?
Reply | f

Ask | Status in this test for `NCCCN1CCCC1=O` ?
Reply | f

Ask | What was the test verdict on `O=C(Nc1ccc([N+](=O)[O-])cc1)C(=O)Nc1ccc([N+](=O)[O-])cc1` ?
Reply | f

Ask | Which outcome was assigned to `CCNC(=O)Oc1ccc[nH]c1=O` in this test?
Reply | f

Ask | So what was the verdict on CC(C)C1CCC(C)C(O)C1 (stereo not drawn) in this test?
Reply | f

Ask | Query: recorded result category for `CCc1ccccc1C(=O)N(CC)CC` in this test
Reply | f

Ask | Short answer needed: outcome of this test for `CCOC(=O)/C(C)=C\c1ccc(OC)c(OC)c1` ?
Reply | f

Ask | Recorded call for `Cc1cc2c3ccc(C)[n+](C)c3ccc2n1C` ?
Reply | f

Ask | Test call, this molecule: `CCCCCCCCCCCCCCCCCCSC(=N)N`
Reply | f

Ask | For `N#Cc1ccc2nc[nH]c2c1` , which call appears in the assay record?
Reply | f

Ask | In this assay, the call recorded for `O=C(CCl)Nc1ccccc1SCc1cc(Cl)cc2c1OCOC2` was what?
Reply | f

Ask | Please let me know the test result on file for O=C(O)C1CSC(c2ccccc2)N1 (stereo not drawn) .
Reply | f

Ask | What did the test return for CC(c1ccccc1)N1C(=O)CSC1=S (stereo not drawn) ?
Reply | f

Ask | Would you mind telling me which call this test gave `CCN(C(=O)Nc1ccccc1Cl)c1ccccc1` ?
Reply | f

Ask | I would be grateful if you could indicate the recorded call for CC(=O)NC(CCc1ccc(Cl)c(Cl)c1)c1cccc(O)c(=O)c1 (stereo not drawn) .
Reply | t

Ask | What was the test verdict on `Nc1ccc(F)c(Cl)c1F` ?
Reply | f

Ask | Any idea what this test logged for `CCOc1ccc2c(c1)c(C)cc(C)[n+]2CC` ?
Reply | f

Ask | Could you check what this test reported for `O=C(O)c1c[nH]c2ccccc2c1=O` ?
Reply | f

###

What growth inhibition was measured for each of the following?
- PROTOCOL TEXT: NCI Yeast Anticancer Drug Screen. Data for the cln2 rad14 strain (AID 165);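 also: 0% = growth equal to vehicle treated cultures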
- ASSAY CONTEXT: S. cerevisiae cln2 rad14 strain, at 50.0 µM, active compounds read high
About 79,000 compounds went through this panel and 15% of them were active in at least one assay; those are over-represented in the sample as a whole.
Record the value in %, omitting the unit from your answer.

Ask | Give its growth inhibition value. Item: `c1ccc(Nc2ccccn2)nc1`
Reply | -87.8

Ask | What value of measured growth inhibition is listed for `O=C(Nc1ccc([N+](=O)[O-])cc1)C(=O)Nc1ccc([N+](=O)[O-])cc1` ?
Reply | -7.55

Ask | Given `CS(=O)(=O)c1ccc(/C=C\C(=O)O)cc1` , state its recorded growth inhibition.
Reply | -8.4

Ask | Could you share which growth inhibition value was measured for `COc1ccc(C)cc1NC(=O)SC(C)C` ?
Reply | -5.2

Ask | Can you look up the measured growth inhibition of `Cc1onc(-c2ccccc2Cl)c1C(=O)Cl` for me?
Reply | 4.5

Ask | Reported growth inhibition for `CCCCN(C(=O)CC)c1ccccc1` : what is it?
Reply | -22.4

Ask | What does the data say about its growth inhibition? Entry: `Oc1cc(O)c2c(c1)O[C@H](c1ccc(O)c(O)c1)[C@@H](O)C2`
Reply | 1.35

Ask | May I ask what growth inhibition has been recorded for O=C1NCC2CCCC1C2 (centres undefined) ?
Reply | -40.9

Ask | Requested field: growth inhibition. Item: `CC(=O)c1cc(O)ccc1O`
Reply | -11.1

Ask | May I ask what growth inhibition has been recorded for `CC(=O)CSc1ncnc2nc[nH]c12` ?
Reply | -5.5

Ask | Field request: growth inhibition | item: `O=[N+]([O-])c1c(O)c(CNCCCO)cc(CNCCCO)c1O`
Reply | 19.6

Ask | Item under review: `C=CCc1cc(OC)c(OC)c(OC)c1` . Reported growth inhibition?
Reply | -6.6

Ask | # lookup: growth inhibition of `CCOC(=O)C(C#N)=C1CCN(C)CC1`
Reply | 10.2

Ask | growth inhibition for `CC(=O)C[n+]1ccc(C)cc1Sc1ccccc1C` ?
Reply | 4.4
